Tested on: Staphylococcus aureus
Assay: Antimicrobial activity against Staphylococcus aureus ATCC BAA44 after 18 hrs
Peptide text beside a SMILES is read from it.
REPORTED METRIC: MBC50 (µM)

1. N=C(N)NCCC[C@H](NC(=O)[C@H](Cc1c[nH]c2ccccc12)NC(=O)[C@H](CCCNC(=N)N)NC(=O)[C@H](Cc1c[nH]c2ccccc12)NC(=O)[C@H](CCCNC(=N)N)NC(=O)[C@H](Cc1c[nH]c2ccccc12)NC(=O)[C@@H](N)CCCNC(=N)N)C(=O)N[C@@H](Cc1c[nH]c2ccccc12)C(N)=O (H-RWRWRWRW-NH2) | 12
2. N=C(N)NCCC[C@H](NC(=O)[C@H](Cc1c[nH]c2ccccc12)NC(=O)[C@@H](N)CCCNC(=N)N)C(=O)N[C@@H](Cc1c[nH]c2ccccc12)C(N)=O (H-RWRW-NH2) | 620
3. N=C(N)NCCC[C@H](NC(=O)[C@H](Cc1c[nH]c2ccccc12)NC(=O)[C@H](CCCNC(=N)N)NC(=O)[C@H](Cc1c[nH]c2ccccc12)NC(=O)[C@H](CCCNC(=N)N)NC(=O)[C@H](Cc1c[nH]c2ccccc12)NC(=O)[C@H](CCCNC(=N)N)NC(=O)[C@H](Cc1c[nH]c2ccccc12)NC(=O)[C@@H](N)CCCNC(=N)N)C(=O)N[C@@H](Cc1c[nH]c2ccccc12)C(N)=O | 6.9
